Hey, just so you know, these numbers are from ChEMBL document CHEMBL5579894.

Test system: Staphylococcus aureus
Experiment: Antibacterial activity against Staphylococcus aureus assessed as reduction in microbial growth incubated for 24 hrs by microdilution method
Type: functional
// values below are reported MIC

Here's what some known entries look like.
[
  {
    "molecule": "COc1ccc([C@@H]2COc3c(ccc(O)c3C/C=C(\\C)CCC=C(C)C)C2)c(O)c1O",
    "MIC": "36.7 µM"
  },
  {
    "molecule": "O=C(/C=C/c1ccc(O)cc1)c1ccc(O)cc1O",
    "MIC": "488 µM"
  },
  {
    "molecule": "C=C[C@@](C)(CCC=C(C)C)c1cc([C@@H]2COc3cc(O)ccc3C2)c(O)c(O)c1OC",
    "MIC": "18.4 µM"
  }
]

Entry `CCCCCCCCN=c1ccn(CCCCCCCCCCn2ccc(=NCCCCCCCC)cc2)cc1` : reported MIC = ? 0.5 µM

Same question for `CC(C)=CCC/C(C)=C/Cc1cc([C@H]2Oc3cc(O)ccc3C(=O)[C@@H]2O)cc(O)c1O` please. 36.7 µM

Same question for COc1ccc(C2COc3c(ccc4c3C=CC(C)(CCC=C(C)C)O4)C2)c(O)c1O (stereo unspecified) please. 36.9 µM
